These entries and their values trace back to ChEMBL document CHEMBL1156796.

List of IC50 values.
System: Hepatitis B virus
assay text: Antiviral activity against HBV infected in human HepG2(2.2.15) cells assessed as inhibition of HBeAg level after 9 days by ELISA
Format: functional, organism-based
recorded conditions: HepG2 2.2.15, 216 h
Numbers only here, please. The scale is µM.

As a guide, the following entries are already answered.
[[record]]
smiles_representation = "Nc1ncnc2c1ncn2CCOCP(=O)(O)O"
scale_unit = "µM"
data_value = 286

[[record]]
smiles_representation = "COc1ccc(C(=O)c2ccc(=O)n(-c3ccccc3)c2)c(O)c1"
scale_unit = "µM"
data_value = 76

[[record]]
smiles_representation = "CCCn1cc(C(=O)c2ccc(OC)cc2O)ccc1=O"
scale_unit = "µM"
data_value = 46.3

[[record]]
smiles_representation = "CCOc1ccc(-n2cc(C(=O)c3ccc(OC)cc3O)ccc2=O)cc1"
scale_unit = "µM"
data_value = 55

[[record]]
smiles_representation = "COc1ccc(C(=O)c2ccc(=O)n(-c3ccc(Cl)cc3)c2)c(O)c1"
scale_unit = "µM"
data_value = 1.6


COc1ccc(C(=O)c2ccc(=O)n(-c3cccc(C)c3)c2)c(O)c1 tested on Hepatitis B virus gave IC50: 0.3

COc1ccc(/C(=N/C(C)C)c2ccc(=O)n(C(C)C)c2)c(O)c1 tested on Hepatitis B virus gave IC50: 54

COc1ccc(-n2cc(C(=O)c3ccc(OC)cc3O)ccc2=O)cc1 tested on Hepatitis B virus gave IC50: 222

----------
assay text: Cytotoxicity against human HepG2(2.2.15) cells
Type: cell-based
Returns: string. Value is TRUE if measured CC50 is below 100 µM, and FALSE if it is greater than or equal to it.

See these solved cases before continuing.
[[record]]
smiles_representation = "COc1ccc(/C(=N/Cc2ccc(F)cc2)c2ccc(=O)n(Cc3ccc(F)cc3)c2)c(O)c1"
label_class = "TRUE"

[[record]]
smiles_representation = "COc1ccc(C(=O)c2ccc(=O)n(-c3ccc(C)cc3)c2)c(O)c1"
label_class = "FALSE"

[[record]]
smiles_representation = "COc1ccc(/C(=N/Cc2ccc(F)cc2F)c2ccc(=O)n(Cc3ccc(F)cc3F)c2)c(O)c1"
label_class = "TRUE"

[[record]]
smiles_representation = "Nc1ncnc2c1ncn2CCOCP(=O)(O)O"
label_class = "FALSE"

[[record]]
smiles_representation = "COc1ccc(C(=O)c2ccc(=O)n(-c3ccc([N+](=O)[O-])cc3)c2)c(O)c1"
label_class = "FALSE"

[[record]]
smiles_representation = "COc1ccc(C(=O)c2ccc(=O)n(C(C)C)c2)c(O)c1"
label_class = "FALSE"

[[record]]
smiles_representation = "CCOc1ccc(-n2cc(C(=O)c3ccc(OC)cc3O)ccc2=O)cc1"
label_class = "FALSE"

[[record]]
smiles_representation = "COc1ccc(/C(=N/C(C)C)c2ccc(=O)n(C(C)C)c2)c(O)c1"
label_class = "FALSE"

[[record]]
smiles_representation = "COc1ccc(C(=O)c2ccc(=O)n(C3CCCCC3)c2)c(O)c1"
label_class = "TRUE"

[[record]]
smiles_representation = "COc1ccc(-n2cc(C(=O)c3ccc(OC)cc3O)ccc2=O)cc1"
label_class = "FALSE"


Determine whether this molecule shows CC50 lower than 100 µM (ties excluded): COc1ccc(C(=O)c2ccc(=O)n(/C=C/Nc3cccc4ccccc34)c2)c(O)c1
FALSE

Determine whether this molecule shows CC50 lower than 100 µM (ties excluded): COc1ccc(C(=O)c2ccc(=O)n(-c3ccc(C(C)=O)cc3)c2)c(O)c1
FALSE
